Assay: in vitro
Conditions: human, Caco-2
Outcome Measure: recovery at 20 µM (%)

Smiles Input | Unit Label | Value Measured
O=C(CCc1cc(Cl)c(Oc2ccncc2C(=O)N2CCN(C3CC3)c3ccccc32)cc1Cl)NCCOCCOCCOCCOCCOCCOCCOCCOCCNC(=O)CCc1cc(Cl)c(Oc2ccncc2C(=O)N2CCN(C3CC3)c3ccccc32)cc1Cl | % | 99.5
O=C(c1cnccc1Oc1cc(Cl)ccc1Cl)N1CCN(C2CC2)c2ccccc21 | % | 46.8
C[C@H]1O[C@@H](O[C@H]2[C@@H](O)C[C@H](O[C@H]3[C@@H](O)C[C@H](O[C@H]4CC[C@@]5(C)[C@H](CC[C@@H]6[C@@H]5C[C@@H](O)[C@]5(C)[C@@H](C7=CC(=O)OC7)CC[C@]65O)C4)O[C@@H]3C)O[C@@H]2C)C[C@H](O)[C@@H]1O | % | 101

// data source = ChEMBL document CHEMBL3421628
